Origin of the recorded values: ChEMBL document CHEMBL4196009

Tested on: BJ
ASSAY_PROTOCOL: Antiproliferative activity against human BJ cells after 72 hrs by CelTiter-Glo assay
Type: cell-based
pEC50: −log10 of the molar value.
Listed compounds paired with reported pEC50

COc1cc(OC)c2c(=O)cc(C(=O)Nc3ccc(S(=O)(=O)c4ccccc4)cc3)[nH]c2c1    < 4.15
COC(=O)c1cc(=O)c2cc(NC(=O)Nc3cc(F)cc(C(F)(F)F)c3)ccc2[nH]1    < 4.40

Request: Print BJ pEC50 for COC(=O)c1cc(=O)c2cc(NC(=O)N[C@@H](C)c3cccc(OC)c3)ccc2[nH]1 .
Result: < 4.60

Request: Check BJ data and give pEC50 for COc1ccc(-c2cc(=O)c3c(OC)cc(OC)cc3n2S(=O)(=O)c2c(F)c(F)c(F)c(F)c2F)cc1 .
Result: < 4.46

Request: Name the recorded pEC50 of COC(=O)c1cc(=O)c2cc(NC(=O)Nc3ccc(C(F)(F)F)cc3[N+](=O)[O-])ccc2[nH]1 , assay system BJ.
Result: < 4.29

Request: Enter pEC50 (test system BJ) for CN1CC[C@H](c2c(O)cc(O)c3c(=O)cc(-c4ccccc4Cl)oc23)[C@H](O)C1
Result: < 4.06

Request: Return reported pEC50 for target or system BJ, item COc1cc(OC)c2c(=O)cc(C(=O)Nc3cccc(N4CCCC4)c3)[nH]c2c1 .
Result: < 4.23

Request: Answer briefly: pEC50 recorded on BJ for COc1ccc(-c2cc(=O)c3c(OC)cc(OC)cc3n2S(=O)(=O)c2cccc(Br)c2)cc1
Result: < 4.23

Request: Lab note: BJ assay, enter pEC50 for COC(=O)c1cc(=O)c2cc(NC(=O)Nc3cccc(C(C)=O)c3)ccc2[nH]1 here
Result: < 4.79
